- Study System: TrkB (Homo sapiens (Human), UniProt Q16620 32-430)
- Sequence (Q16620 32-430 limits assumed): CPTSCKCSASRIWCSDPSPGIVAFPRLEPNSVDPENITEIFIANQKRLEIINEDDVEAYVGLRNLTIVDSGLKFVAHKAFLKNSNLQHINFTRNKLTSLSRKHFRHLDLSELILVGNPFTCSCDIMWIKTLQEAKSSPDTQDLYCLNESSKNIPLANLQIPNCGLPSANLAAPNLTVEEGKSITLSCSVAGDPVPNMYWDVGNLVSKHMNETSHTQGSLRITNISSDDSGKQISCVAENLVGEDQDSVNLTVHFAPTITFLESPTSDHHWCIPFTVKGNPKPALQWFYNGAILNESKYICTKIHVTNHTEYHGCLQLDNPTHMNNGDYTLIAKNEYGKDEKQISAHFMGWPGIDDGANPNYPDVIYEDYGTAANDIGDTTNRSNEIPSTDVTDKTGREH
- Protocol Details: koff of Fab at 25 C; T1/2=Log2/koff
Parameter: T1/2. Scope: all listed entries.
Give just the number in min; leave the unit off.

Examples with their reported T1/2 follow.
{"Binder": "A6-11 (Fab, V domains shown, Fab) VH: QVQLVQSGAEVKKPGASVKVSCKASGYTFTNYDIIWVRQAPGQGLEWMGYINPYNRRTEYNEKFKGRVTMTRDTSTSTVYMELSSLRSEDTAVYYCARLLKYRRFRYYAIDYWGQGTTVTVSS VL: DIQMTQSPSSLSASVGDRVTITCHASENVYSNLAWYQQKPGKAPKLLIYAASNLQSGVPSRFSGSGSGTDYTFTISSLQPEDIATYYCQHFWGSPFTFGQGTKLEIK", "Uom": "min", "T1/2": 9.9}
{"Binder": "3-G7 (Fab, V domains shown, Fab) VH: QVQLVQSGAEVKKPGASVKVSCKASGYTFTNYVILWVRQAPGQGLEWMGYINPYNDGTKYNEKFKGRVTMTRDTSTSTVYMELSSLRSEDTAVYYCARLLKYRRFSYYAEDYWGQGTTVTVSS VL: DIQMTQSPSSLSASVGDRVTITCRASENVYSNLAWYQQKPGKAPKLLIYAASNLQSGVPSRFSGSGSGTDFTFTISSLQPEDIATYYCQNFWYSPFTFGQGTKLEIK", "Uom": "min", "T1/2": 0.92}
{"Binder": "16-B2 (Fab, V domains shown, Fab) VH: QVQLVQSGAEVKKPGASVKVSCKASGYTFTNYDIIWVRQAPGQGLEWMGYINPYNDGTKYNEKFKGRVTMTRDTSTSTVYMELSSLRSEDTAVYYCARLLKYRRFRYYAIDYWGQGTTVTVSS VL: DIQMTQSPSSLSASVGDRVTITCRASENVYSNLAWYQQKPGKAPKLLIYAASNLQSGVPSRFSGSGSGTDFTFTISSLQPEDIATYYCQHFWGSPFTFGQGTKLEIK", "Uom": "min", "T1/2": 5}

Request the reported T1/2 associated with 2-A2 (Fab, V domains shown, Fab) VH: QVQLVQSGAEVKKPGASVKVSCKASGYTFTNYVILWVRQAPGQGLEWMGYINPYNDGTKYNEKFKGRVTMTRDTSTSTVYMELSSLRSEDTAVYYCARLLKYRRLSYYAIDYWGQGTTVTVSS VL: DIQMTQSPSSLSASVGDRVTITCRASENVYSNLAWYQQKPGKAPKLLIYAASNLQSGVPSRFSGSGSGTDFTFTISSLQPEDIATYYCQHFWYSPFTFGQGTKLEIK
0.57

Request the reported T1/2 associated with 16-E4 (Fab, V domains shown, Fab) VH: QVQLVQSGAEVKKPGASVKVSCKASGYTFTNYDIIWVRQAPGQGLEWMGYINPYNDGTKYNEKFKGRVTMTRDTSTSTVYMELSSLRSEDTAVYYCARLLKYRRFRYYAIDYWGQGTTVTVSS VL: DIQMTQSPSSLSASVGDRVTITCRASENVYSNLAWYQQKPGKAPKLLIYAASNLQSGVPSRFSGSGSGTDFTFTISSLQPEDIATYYCQHFWYSPWTFGQGTKLEIK
7
